Reported AC50 values follow for various molecules
- Measurement Target: Cytochrome P450 2C19 (Homo sapiens)
- Sequence (P33261 whole entry): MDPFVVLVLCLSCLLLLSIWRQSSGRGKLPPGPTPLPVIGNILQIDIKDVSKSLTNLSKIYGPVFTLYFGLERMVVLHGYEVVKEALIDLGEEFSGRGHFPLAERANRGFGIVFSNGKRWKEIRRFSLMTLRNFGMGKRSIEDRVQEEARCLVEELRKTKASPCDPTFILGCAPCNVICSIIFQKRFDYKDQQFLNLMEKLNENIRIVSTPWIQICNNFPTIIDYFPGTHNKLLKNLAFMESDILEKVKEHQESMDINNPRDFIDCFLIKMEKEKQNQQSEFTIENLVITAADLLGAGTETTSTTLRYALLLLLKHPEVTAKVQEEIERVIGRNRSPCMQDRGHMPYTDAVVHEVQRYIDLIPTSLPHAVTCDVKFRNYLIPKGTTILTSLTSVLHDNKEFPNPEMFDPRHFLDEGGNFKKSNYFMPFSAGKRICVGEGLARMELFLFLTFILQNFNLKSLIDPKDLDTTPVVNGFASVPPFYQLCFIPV
- Test Description: Cytochrome panel assay with activity outcomes. Panel member name: p450-cyp2c19 Compounds with AC50 equal or less than 10 uM are considered active
- Assay type: functional
- Experimental Conditions: read-out: AC50

molecule Cc1cc2nc3c(=O)[nH]c(=O)nc-3n(CC(O)C(O)C(O)CO)c2cc1C (stereo unspecified) , AC50 observed: 6.31 µM (inconclusive)

molecule O=C(NCCCN1CCCC1=O)Nc1ccc(F)c(Cl)c1 , AC50 observed: 39.8 µM (inconclusive)

molecule CCOc1ccc(N(C(C)C(=O)NC(C)CC)S(C)(=O)=O)cc1 (stereo unspecified) , AC50 observed: 7.94 µM (inconclusive)

molecule COc1ccc(C2C(=O)N(C3CCCCCC3)CC(=O)N2Cc2ccccc2)cc1OC (stereo unspecified) , AC50 observed: 39.8 µM (inconclusive)

molecule COc1ccc(-n2c(=O)[nH]cc(C(=O)Nc3ccc4c(c3)OCCO4)c2=O)cc1 , AC50 observed: 10 µM (inconclusive)

molecule Cc1cccc(OCC(=O)N/N=C\C=C\c2ccc3c(c2)OCO3)c1C , AC50 observed: 10 µM (inconclusive)

molecule Cc1cc(C)c(S(=O)(=O)n2ccc(-c3ccc(OCCN(C)c4ccccn4)cc3)n2)c(C)c1 , AC50 observed: 0.631 µM (inconclusive)

molecule CCOC(=O)c1cnc(-c2ccccc2)nc1Oc1cccc(Cl)c1 , AC50 observed: 3.98 µM (inconclusive)

* * *

- Measurement Target: Calpain-2 catalytic subunit (Sus scrofa)
- Sequence (P43367 whole entry): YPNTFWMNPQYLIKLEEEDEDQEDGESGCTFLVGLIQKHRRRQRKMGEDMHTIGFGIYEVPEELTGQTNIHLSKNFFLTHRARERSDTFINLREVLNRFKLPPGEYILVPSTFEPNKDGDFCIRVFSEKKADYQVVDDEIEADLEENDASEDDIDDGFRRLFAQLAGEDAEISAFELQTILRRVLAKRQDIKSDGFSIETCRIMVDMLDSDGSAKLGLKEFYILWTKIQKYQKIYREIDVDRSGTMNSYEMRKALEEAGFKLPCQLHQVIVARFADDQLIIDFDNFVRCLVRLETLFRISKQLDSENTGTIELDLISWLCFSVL
- Test Description: pig calpain II inhibitor potency, dose response, biochemical, fluorogenic peptide substrate (AID 1420)
- Format: functional
Reported Metric: IC50

- Compound: "O=C1c2ccccc2C(=O)N1CCCC(=O)N1CCCc2ccccc21"
  IC50: "> 50 µM (not active)"
- Compound: "CCCN(Cc1ccccc1)C(S)=Nc1ccc(SC(F)F)cc1"
  IC50: "18.1 µM (not active)"
- Compound: "Cc1cc(NC(=O)CCN2C(=O)/C(=C/c3ccccc3Cl)SC2=S)no1"
  IC50: "> 50 µM (not active)"
- Compound: "CCCCCCCCNC(=O)c1ccc(C)cc1"
  IC50: "10.1 µM (not active)"
- Compound: "O=C(Cc1cn(Cc2cccc(Cl)c2)c2ccccc12)N1CCCC1"
  IC50: "17.1 µM (not active)"

Could you now consider this next compound?
compound O=C(NC1CCCCC1)C1c2ccccc2C(=O)N1Cc1ccc2c(c1)OCO2 (stereo unspecified) , IC50 observed: 20.2 µM (not active)

* * *

- Measurement Target: Corticotropin-releasing factor receptor 2/Corticotropin-releasing factor-binding protein (Homo sapiens, UniProt P24387+Q13324)
- Sequence (Q13324 whole entry): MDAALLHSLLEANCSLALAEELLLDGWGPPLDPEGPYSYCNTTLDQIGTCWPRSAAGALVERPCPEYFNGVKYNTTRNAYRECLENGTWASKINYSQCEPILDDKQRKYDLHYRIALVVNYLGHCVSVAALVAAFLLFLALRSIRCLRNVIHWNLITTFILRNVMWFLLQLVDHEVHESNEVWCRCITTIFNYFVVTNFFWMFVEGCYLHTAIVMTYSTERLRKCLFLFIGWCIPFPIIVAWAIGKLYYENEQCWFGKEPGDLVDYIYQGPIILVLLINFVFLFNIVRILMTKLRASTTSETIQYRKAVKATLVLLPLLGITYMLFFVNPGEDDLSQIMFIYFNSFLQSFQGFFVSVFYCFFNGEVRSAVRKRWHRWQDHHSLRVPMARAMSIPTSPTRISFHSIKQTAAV
- Sequence (P24387 whole entry): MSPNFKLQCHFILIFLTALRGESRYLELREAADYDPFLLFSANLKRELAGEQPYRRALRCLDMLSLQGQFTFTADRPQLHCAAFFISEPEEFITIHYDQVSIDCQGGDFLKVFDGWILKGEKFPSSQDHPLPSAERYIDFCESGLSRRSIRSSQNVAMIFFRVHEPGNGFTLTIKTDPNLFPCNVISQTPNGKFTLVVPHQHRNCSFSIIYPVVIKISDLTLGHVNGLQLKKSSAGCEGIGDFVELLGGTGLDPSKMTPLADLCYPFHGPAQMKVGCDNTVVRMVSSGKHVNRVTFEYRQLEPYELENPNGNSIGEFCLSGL
- Test Description: Dose Response confirmation of uHTS hits for small molecule antagonists of the CRF-binding protein and CRF-R2 receptor complex.
- Format: functional
- Experimental Conditions: read-out: IC50_Mean
Activity calls are given as the source filed them.
Can you answer with just one of these options? active, inactive

Solved entries (count: 5):
- Compound: "Cc1ccc(C(=O)N/N=C\\c2ccccn2)cn1"
  Class Assignment: "inactive"
- Compound: "C=CCOc1ccc(/C=C2\\SC(=S)N(NS(=O)(=O)c3ccccc3)C2=O)cc1"
  Class Assignment: "active"
- Compound: "CCCN(C(=O)c1cc(Cl)nc2ccccc12)C1CCS(=O)(=O)C1 (stereo unspecified)"
  Class Assignment: "inactive"
- Compound: "CCN(CC(=O)Nc1ccc(NC(C)=O)cc1)C(=O)c1ccc(=O)n(C)n1"
  Class Assignment: "inactive"
- Compound: "O=C(COc1ccc(Cl)cc1Cl)Nc1ccccc1F"
  Class Assignment: "inactive"

With those in mind, consider the next compound.
Write down the call the test reported for this compound. Item: COc1ccccc1C(=O)COC(=O)c1c(-c2ccccc2)noc1C
inactive

* * *

Observed AC50, system Cytochrome P450 2C9 (Homo sapiens).

- Structure Smiles: "Cc1cc(C)c(S(=O)(=O)n2ccc(-c3ccc(OCCN(C)c4ccccn4)cc3)n2)c(C)c1"
  AC50: "1.78 µM (inconclusive)"
- Structure Smiles: "COc1ccc(/C=C\\C(=O)Nc2ccccc2C(=O)O)cc1OC"
  AC50: "15.8 µM (inconclusive)"
- Structure Smiles: "CCC(=O)Nc1cc(-c2nn(C)c(=O)c3ccccc23)ccc1N1CCCCC1"
  AC50: "5.01 µM (inconclusive)"
- Structure Smiles: "COc1ccccc1Cn1c(=S)[nH]c2cc(C(=O)N3CCN(C)CC3)ccc2c1=O"
  AC50: "0.112 µM (inconclusive)"

Could you now consider this next compound?
// AC50 (Cytochrome P450 2C9 (Homo sapiens)) for COc1ccc2[nH]c(SCC(=O)c3ccco3)nc2c1 = 31.6 µM (inconclusive)

* * *

- Test Description: cytotoxicity toward NIH3T3 fibroblasts, dose response, counter-screen, cell-based, ATP luminescence, mouse fibroblasts (AID 2010);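 note: cells exposed to compound for about 90 hours before reading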
- Assay type: functional
The source made the active and inactive calls.
Reported Metric: EC50

- Compound: "Cc1cc(NC2CCCCC2)nc(NCc2ccccc2)n1"
  Reported Metric: "EC50"
  Endpoint Result: "8.62 µM (active)"
- Compound: "Cc1ccc2[nH]c(O)c(N=Nc3nc4ccccc4s3)c2c1"
  Reported Metric: "EC50"
  Endpoint Result: "> 60 µM (not active)"
- Compound: "Cc1ccccc1-n1cnc2c(sc3nc(N4CCOCC4)c4c(c32)CCCC4)c1=O"
  Reported Metric: "EC50"
  Endpoint Result: "> 60 µM (not active)"

compound CN(C)c1ccc(C(=S)N2CCN(S(=O)(=O)c3ccccc3)CC2)cc1 , EC50 observed: > 60 µM (not active)

compound CC(=O)N(CCCc1ccc(C(C)(C)C)cc1)CCCN(C)C , EC50 observed: > 60 µM (not active)

compound O=C(Nc1ccc(-c2csc(Nc3cccc(C(F)(F)F)c3)n2)cc1)c1ccccc1 , EC50 observed: 7.93 µM (active)

compound Cc1ccccc1Nc1c(-c2ccncc2)nc2ccc(Br)cn12 , EC50 observed: > 30 µM (not active)

compound CC(C)(C)NC(=O)C(c1ccncc1)N(Cc1ccc(F)cc1)C(=O)c1ccc(-c2ccccc2)[nH]1 (stereo unspecified) , EC50 observed: > 60 µM (inconclusive)

compound CSc1nc(NCc2ccccc2)c2c3c(sc2n1)CN(C)CC3 , EC50 observed: > 30 µM (not active)

compound COc1ccc(C(Nc2ccccn2)c2c(NC(=O)c3ccco3)sc(C)c2C)cc1 (stereo unspecified) , EC50 observed: > 60 µM (not active)

compound CCC(=O)NC(=S)Nc1ccc(NC(=S)NC(=O)c2ccccc2)cc1 , EC50 observed: > 60 µM (not active)

* * *

- Measurement Target: Replicative DNA helicase DnaB (Mycobacterium tuberculosis, UniProt P9WMR3)
- Test Description: DnaB intein splicing inhibitors, dose response, biochemical, cell-free fluorescence (AID 449749)
- Assay type: functional
Activity calls are given as the source filed them.
Can you answer with just one of these options? active, inactive

- Compound: "OC1=C2C(=Nc3nn(-c4ccccc4)c(O)c3C2c2ccc3c(c2)OCO3)CCC1 (configuration not stated)"
  Class Assignment: "active"
- Compound: "COc1ccc(N2C(=O)C(Cl)=C(NCc3ccccc3)C2=O)cc1"
  Class Assignment: "active"
- Compound: "CCCCCCn1c(N2CCC(C(N)=O)CC2)nc2c1c(=O)n(C)c(=O)n2C"
  Class Assignment: "inactive"
- Compound: "Cc1cccc(/C=N/NC(=O)C(C)Nc2cccc3ccccc23)n1 (configuration not stated)"
  Class Assignment: "active"
- Compound: "N#CC(C#N)C(c1ccsc1)c1c(-c2ccccc2)n[nH]c1O (configuration not stated)"
  Class Assignment: "active"
- Compound: "CCC(=O)Nc1c(C)nn(C(=O)CC)c1C"
  Class Assignment: "inactive"
- Compound: "O=C(Cc1cc(O)n[nH]1)N/N=C/c1ccccc1Cl"
  Class Assignment: "active"
- Compound: "O=C(Nc1ncc([N+](=O)[O-])s1)c1ccco1"
  Class Assignment: "active"

Write down the call the test reported for this compound. Item: CCc1nc(SCC(=O)N2CCN(c3ccccc3)CC2)c2oc3ccccc3c2n1
active

Write down the call the test reported for this compound. Item: O=C(NCc1cccnc1)/C(=C/c1ccc(-c2ccc(Cl)cc2)o1)S(=O)(=O)c1ccccc1
inactive

Write down the call the test reported for this compound. Item: COc1ccc(C(=O)N/N=C\c2coc3ccc(Cl)cc3c2=O)cc1
inactive

Write down the call the test reported for this compound. Item: Cc1nn(-c2cccc(Cl)c2)c2c1C(c1cccnc1)C(C#N)=C(N)O2 (configuration not stated)
active

* * *

- Measurement Target: Large T antigen (Simian virus 40);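 note: Confirmatory-stage PubChem screen for compounds that inhibit SV40 T antigen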
- Sequence (P03070 whole entry): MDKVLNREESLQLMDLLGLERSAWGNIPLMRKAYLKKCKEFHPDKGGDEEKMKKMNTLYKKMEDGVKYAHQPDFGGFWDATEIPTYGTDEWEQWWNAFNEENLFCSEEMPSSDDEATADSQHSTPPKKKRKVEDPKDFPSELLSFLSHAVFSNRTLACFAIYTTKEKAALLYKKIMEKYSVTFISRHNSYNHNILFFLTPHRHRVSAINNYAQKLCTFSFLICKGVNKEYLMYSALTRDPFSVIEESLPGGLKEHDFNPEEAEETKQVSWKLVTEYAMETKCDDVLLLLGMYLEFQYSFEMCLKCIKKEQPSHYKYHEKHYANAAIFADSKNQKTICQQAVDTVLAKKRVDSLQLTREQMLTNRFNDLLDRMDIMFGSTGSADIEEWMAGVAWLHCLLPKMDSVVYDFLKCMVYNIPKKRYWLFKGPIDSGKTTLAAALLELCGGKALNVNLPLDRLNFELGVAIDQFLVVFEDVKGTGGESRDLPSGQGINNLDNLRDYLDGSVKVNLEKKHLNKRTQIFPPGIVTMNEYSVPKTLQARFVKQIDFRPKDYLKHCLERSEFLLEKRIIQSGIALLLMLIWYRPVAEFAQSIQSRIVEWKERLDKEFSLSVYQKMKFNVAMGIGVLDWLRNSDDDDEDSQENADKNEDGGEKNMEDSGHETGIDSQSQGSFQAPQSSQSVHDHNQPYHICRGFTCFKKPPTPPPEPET
- Assay type: functional, Betapolyomavirus macacae
Active and inactive are the calls of the source.
Reported Metric: IC50

- Molecule: "COCCNC(=S)N/N=C(\\C)c1ccc(O)cc1"
  IC50: "10.8 µM (active)"
- Molecule: "CCN(C(=O)CN1CCN(c2ccc(O)cc2)CC1)c1c(N)n(Cc2ccccc2)c(=O)[nH]c1=O"
  IC50: "7.74 µM (active)"
- Molecule: "O=c1oc2cc(O)ccc2s1 [TIOXOLONE]"
  IC50: "19 µM (active)"
- Molecule: "Cc1ccc(-c2nnc(Nc3ccc(O)cc3)c3ccccc23)cc1S(=O)(=O)NCCO"
  IC50: "13.2 µM (active)"

Could you now consider this next molecule?
molecule C/N=C1\S/C(=C\c2ccc(O)c(OC)c2)C(=O)N1C , IC50 observed: 11.1 µM (active)
